- assayed_system: Type-1 angiotensin II receptor (Oryctolagus cuniculus) (UniProt P34976)
- Sequence (whole entry): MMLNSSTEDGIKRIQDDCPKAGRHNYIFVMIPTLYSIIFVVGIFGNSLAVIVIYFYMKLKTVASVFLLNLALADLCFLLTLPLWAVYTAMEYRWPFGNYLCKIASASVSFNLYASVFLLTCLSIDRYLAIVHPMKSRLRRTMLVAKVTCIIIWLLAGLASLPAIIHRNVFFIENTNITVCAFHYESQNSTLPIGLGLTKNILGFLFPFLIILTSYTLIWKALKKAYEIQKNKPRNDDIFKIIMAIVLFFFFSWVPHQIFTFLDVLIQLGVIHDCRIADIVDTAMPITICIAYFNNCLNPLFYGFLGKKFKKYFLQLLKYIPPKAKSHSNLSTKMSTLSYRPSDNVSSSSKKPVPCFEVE
- measurement_protocol: Antagonist activity at angiotensin 2 type-1 receptor in Oryctolagus cuniculus (rabbit) aorta in presence of bovine serum albumin
- Set-up: unit not given here
Rule: logIC50 below 1 gives yes (1), anything at or above gives no (0).

Examples with answers:
{"molecule": "CCCCc1nn(-c2ccc(OC)cc2[N+](=O)[O-])c(=O)n1Cc1ccc(-c2ccccc2-c2nn[nH]n2)cc1", "cat": "yes (1)"}
{"molecule": "CCCCc1nn(-c2ccccc2C(C)C)c(=O)n1Cc1ccc(-c2ccccc2-c2nn[nH]n2)cc1", "cat": "yes (1)"}
{"molecule": "CCCCc1nn(Cc2ccccc2C(=O)OC)c(=O)n1Cc1ccc(-c2ccccc2-c2nn[nH]n2)cc1", "cat": "no (0)"}
{"molecule": "CCCCc1nn(-c2cccc(C)c2)c(=O)n1Cc1ccc(-c2ccccc2-c2nn[nH]n2)cc1", "cat": "no (0)"}
{"molecule": "CCCCc1nn(-c2ccccc2Br)c(=O)n1Cc1ccc(-c2ccccc2-c2nn[nH]n2)cc1", "cat": "yes (1)"}
{"molecule": "CCCCc1nn(C(C(=O)O)c2ccccc2)c(=O)n1Cc1ccc(-c2ccccc2-c2nn[nH]n2)cc1 (stereo not drawn)", "cat": "no (0)"}
{"molecule": "CCCCc1nn(-c2ccccc2C(F)(F)F)c(=O)n1Cc1ccc(-c2ccccc2-c2nn[nH]n2)cc1", "cat": "yes (1)"}
{"molecule": "CCCCc1nn(C(C)CC)c(=O)n1Cc1ccc(-c2ccccc2-c2nn[nH]n2)cc1 (stereo not drawn)", "cat": "yes (1)"}

Identify whether the molecule CCCCc1nn(Cc2ccccc2C(=O)O)c(=O)n1Cc1ccc(-c2ccccc2-c2nn[nH]n2)cc1 records logIC50 below 1.
no (0)

State whether 1 exceeds logIC50 recorded for CCCCc1nn(C(C)C)c(=O)n1Cc1ccc(-c2ccccc2-c2nn[nH]n2)cc1 .
yes (1)

is_below(logIC50, 1) for CCCCc1nn(CCC)c(=O)n1Cc1ccc(-c2ccccc2-c2nn[nH]n2)cc1 ?
yes (1)

Regarding CCCCc1nn(-c2cccc([N+](=O)[O-])c2)c(=O)n1Cc1ccc(-c2ccccc2-c2nn[nH]n2)cc1 , kindly confirm whether its logIC50 is beneath 1.
no (0)

Criterion: logIC50 strictly below 1. Is it met by CCCCc1nn(CCCC)c(=O)n1Cc1ccc(-c2ccccc2-c2nn[nH]n2)cc1 ?
yes (1)

Please determine if CCCCc1nn(-c2ccc(F)cc2)c(=O)n1Cc1ccc(-c2ccccc2-c2nn[nH]n2)cc1 is below 1 in terms of logIC50.
no (0)

Does this molecule meet the criterion logIC50 < 1? CCCCc1nn(-c2ccc(C(=O)OC)cc2)c(=O)n1Cc1ccc(-c2ccccc2-c2nn[nH]n2)cc1
no (0)

For this molecule, is logIC50 lower than 1? CCCCc1nn(-c2ccc(CC)cc2)c(=O)n1Cc1ccc(-c2ccccc2-c2nn[nH]n2)cc1
no (0)
